Values were extracted from patent US20180148504A1.

Kindly state Specific signal at 500 pg/mL for each of the entries shown.
- testSystem: T1, recombinant purified FRα (ECL assay calibrator) (human, UniProt P15328 25-234)
- T1 construct: Calibrator of the ECL sandwich assays; also called FRα calibrator; FRα standard
- T1 sequence (P15328 25-234 limits assumed): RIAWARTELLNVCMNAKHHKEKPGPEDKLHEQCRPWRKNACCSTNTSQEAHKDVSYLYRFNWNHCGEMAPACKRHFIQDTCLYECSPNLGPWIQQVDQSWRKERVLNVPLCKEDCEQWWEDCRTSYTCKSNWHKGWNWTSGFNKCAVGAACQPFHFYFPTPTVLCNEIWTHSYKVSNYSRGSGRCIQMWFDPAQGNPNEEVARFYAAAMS
- protocol: ECL sandwich, FRα calibrator; capture 30G6.G6.G4.E9; binder = detection Ab
Just the number.

Task item: Dear colleague, please send me the reported Specific signal at 500 pg/mL for Monoclonal antibody 19D4.B7 (antibody, mouse IgG2a, V domains shown, SULFO-TAG conjugated when used as detection antibody in the ECL assay; also called ATCC PTA-11884) VH: GARELVKPGASVKLSCTASGFNIKHPYMHWVKQRPDQGLEWIGRIDPANGNTKYDPKFQGKATITADTSSNTAYLQLSSLTSEDTAVYYCGREEVADYTMDYWGQGTSVTVSS VL: PASLAVSLGQRATISCRASESVDTYGNNFIHWYQQKPGQPPKLLIYLASNLESGVPARFSGSGSRTDFTLTIDPVEADDAATYYCQQNNGDPWTFGGGTKLEIKR when you can.
Reply: 81

Task item: Dear colleague, please send me the reported Specific signal at 500 pg/mL for Monoclonal antibody 24H8.F3 (antibody, mouse IgG1, V domains shown, Murine IgG1 kappa from hybridoma; also called ATCC PTA-123097) VH: GPGLVAPSQSLSITCTVSGFSLTSYGVSWVRQPPGKGLEWLGVIWGDGSTNYHSTLISRLSISKDNSKSQVFLKLNSLQTDDTATYYCAKPHPAATGAMDYWGQGTSVTVSS VL: TTSSLSASLGDRVTISCRASQDISNHLNWYQQKPDGTIKLLIYYTSKLHSGVPSRFSGSGSGTDYSLTISNLEQEDIATYFCQQGNTLWTFGGGTKLEIK when you can.
Reply: 28300
